# Test system: SW480 colon cancer cells
# Experiment notes: Cell viability assay (CellTiter-Blue) in SW480 colon cancer cells
# Type: cell-based
# Study conditions: Homo sapiens, 96 h, four days, CellTiter-Blue
pEC50: −log10 of the molar value.
Readout label: pEC50

compound="CCCCC(=O)Nc1cncc(-c2ccc3[nH]nc(-c4cc5c(N6CCCCC6)nccc5[nH]4)c3n2)c1 [Compound 187]" readout_label=pEC50 measured_result=5.35

(1) Cc1ccncc1-c1ccc2[nH]nc(-c3cc4c(-c5cc(F)cc(CNS(C)(=O)=O)c5)nccc4[nH]3)c2n1 [Compound 481]
(2) CN1CCN(c2nccc3[nH]c(-c4n[nH]c5ccc(-c6cncc(CN7CCCCC7)c6)nc45)cc23)CC1 [Compound 239]
Which gives the smaller pEC50 number: 1 or 2 ? Please identify the chosen entry by its label. 2

---

# System: SW480 colon cancer cells
# Experiment notes: Cell viability assay (CellTiter-Blue) in SW480 colon cancer cells
# Assay type: cell-based
# Study conditions: Homo sapiens, 96 h, four days, CellTiter-Blue
Readout label: EC50 (nM)

compound="Fc1cccc(-c2nccc3[nH]c(-c4n[nH]c5ccc(-c6cncc(OCc7ccccc7)c6)nc45)cc23)c1 [Compound 518]" measured_result=1360
compound="Cc1ccncc1-c1ccc2[nH]nc(-c3cc4c(-c5ccc(F)cc5)nccc4[nH]3)c2n1 [Compound 33]" measured_result=4470
compound="O=C(Nc1cncc(-c2ccc3[nH]nc(-c4cc5c(-c6cccc(F)c6)nccc5[nH]4)c3n2)c1)C1CCCCC1 [Compound 23]" measured_result=505
compound="c1csc(-c2nccc3[nH]c(-c4n[nH]c5ccc(-c6ccncc6)nc45)cc23)c1 [Compound 354]" measured_result=2820
compound="O=C(Nc1cncc(-c2ccc3[nH]nc(-c4cc5c(-c6ccccc6F)nccc5[nH]4)c3n2)c1)C1CC1 [Compound 76]" measured_result=596
compound="CN(C)Cc1cncc(-c2ccc3[nH]nc(-c4cc5c(N6CCCCC6)nccc5[nH]4)c3n2)c1 [Compound 181]" measured_result=2700

(P) c1cc2[nH]c(-c3n[nH]c4ccc(-c5cncnc5)nc34)cc2cn1 [Compound 279]
(Q) CN1CCN(c2nccc3[nH]c(-c4n[nH]c5ccc(-c6cncc(NC(=O)CC(C)(C)C)c6)nc45)cc23)CC1 [Compound 240]
(R) CC(C)CC(=O)Nc1cncc(-c2ccc3[nH]nc(-c4cc5c(-c6ccccc6F)nccc5[nH]4)c3n2)c1 [Compound 58]
(S) CN(C)Cc1cncc(-c2ccc3[nH]nc(-c4cc5c(-c6ccccc6F)nccc5[nH]4)c3n2)c1 [Compound 69]
Order the records by EC50, with each subsequent value no larger than the one before. # format: label list in the order the request specifies Q, P, S, R

(A) FC1(F)CCN(Cc2cncc(-c3ccc4[nH]nc(-c5cc6c(N7CCCCC7)nccc6[nH]5)c4n3)c2)C1 [Compound 194]
(B) CN(C)c1cncc(-c2ccc3[nH]nc(-c4cc5c(-c6cccc(F)c6)nccc5[nH]4)c3n2)c1 [Compound 7]
Lower value for measured EC50? Options: A , B API: response body contains the label of the selected item. B
(B: 483 nM, A: 1900 nM)

---

# Tested on: primary human fibroblasts derived from IPF patients (LL29 cells)
# Experiment notes: Inhibition of fibrotic process: αSMA staining in TGF-β1 treated LL29 fibroblasts
# Type: cell-based
# Study conditions: Fibroblast, given for EC50 >10 μM, TGF-β1, αSMA, 10 μM, read-out: percent inhibition at 10 μM
Readout label: inhibition at 10 µM (%)
Numeric answer only, unit % assumed.

chemical_string=c1cc2[nH]c(-c3n[nH]c4ccc(-c5cncc(OC6CCCCC6)c5)nc34)cc2c(N2CCCCC2)n1 target_under_test="primary human fibroblasts derived from IPF patients (LL29 cells)" unit_label=% measured_result=25.4
chemical_string=Fc1ccccc1-c1nccc2[nH]c(-c3n[nH]c4ccc(-c5cncnc5)nc34)cc12 target_under_test="primary human fibroblasts derived from IPF patients (LL29 cells)" unit_label=% measured_result=0

What measured inhibition at 10 µM goes with CN(C)c1cncc(-c2ccc3[nH]nc(-c4cc5c(-c6cccc(F)c6)nccc5[nH]4)c3n2)c1 ? 0

If you can, please state the reported inhibition at 10 µM value of CS(=O)(=O)NCc1cc(F)cc(-c2nccc3[nH]c(-c4n[nH]c5ccc(-c6cncnc6)nc45)cc23)c1 . 0

For the compound shown here, CS(=O)(=O)NCc1cc(F)cc(-c2nccc3[nH]c(-c4n[nH]c5ccc(-c6cncc(NC(=O)C7CCCC7)c6)nc45)cc23)c1 , give the reported inhibition at 10 µM. 34.8

Can you look up the measured inhibition at 10 µM of CS(=O)(=O)NCc1cc(F)cc(-c2nccc3[nH]c(-c4n[nH]c5ccc(-c6cncc(NC(=O)Cc7ccccc7)c6)nc45)cc23)c1 for me? 37.1

Value lookup for inhibition at 10 µM; key = CCNCc1cncc(-c2ccc3[nH]nc(-c4cc5cnccc5[nH]4)c3n2)c1 22.6
